The origin of these recorded values is patent US8445636B2.

Test system: Cryptococcus neoformans ATCC MYA-422
methodNotes: microbe, parasite or virus in culture
Assay type: cell-based
conditionNotes: ATCC MYA-422, pH 7.4
Non-standard residues stand in square brackets, D forms with d. Residues, ends and D or L forms follow the SMILES beside them. *: point of attachment. Palmitoyl = CCCCCCCCCCCCCCCC(=O)*
measurementType: Minimal Inhibitory Concentration, Cryptococcus neoformans (ATCC MYA-422) (µM)
// units = µM; emit number, no label

Fill in the recorded Minimal Inhibitory Concentration, Cryptococcus neoformans (ATCC MYA-422) for this molecule, with Cryptococcus neoformans ATCC MYA-422 as test system: CCCCCCCCCCCCCCCC(=O)N[C@H](CCCCN)C(=O)NCC(=O)NCC(=O)NCC(=O)N[C@H](CCCCN)C(=O)NCC(=O)NCC(=O)NCC(=O)N[C@H](CCCCN)C(=O)NCC(=O)NCC(=O)N[C@H](CCCCN)C(N)=O [lipopeptide 2] (Palmitoyl-[dK]GGG[dK]GGG[dK]GG[dK]-NH2)
6.25

====

Some compounds, each annotated with its measured Minimal Inhibitory Concentration, P. aeruginosa ATCC 27853.
System: Pseudomonas aeruginosa ATCC 27853
Type: cell-based
conditionNotes: ATCC 27853, pH 7.4
Non-standard residues stand in square brackets, D forms with d. Residues, ends and D or L forms follow the SMILES beside them. *: point of attachment. Palmitoyl = CCCCCCCCCCCCCCCC(=O)*

INSERT INTO measurements (compound, datavalue) VALUES
  ('CCCCCCCCCCCCCCCC(=O)N[C@@H](CCCCN)C(=O)N[C@@H](CCC(=O)O)C(N)=O [PA-KE] (Palmitoyl-Lys-Glu-NH2)', '>100 µM'),
  ('CCCCCCCCCCCCCCCC(=O)N[C@@H](CCCCN)C(=O)N[C@@H](CC(C)C)C(=O)N[C@H](CC(C)C)C(=O)N[C@@H](CCCCN)C(N)=O [PA-KLLK, Palmitoyl-Lys-Leu-D-Leu-Lys-NH2] (Palmitoyl-KL[dL]K-NH2)', '100 µM');

Let's switch to this compound now.
Give the measured Minimal Inhibitory Concentration, P. aeruginosa ATCC 27853 of CCCCCCCCCCCCCCCC(=O)N[C@@H](CCCNC(=N)N)C(=O)N[C@@H](CC(C)C)C(=O)N[C@H](CC(C)C)C(=O)N[C@@H](CCCNC(=N)N)C(N)=O [PA-RLLR, Palmitoyl-Arg-Leu-D-Leu-Arg-NH2] (Palmitoyl-RL[dL]R-NH2) .
>100 µM

====

Measured Minimal Inhibitory Concentration, Aspergillus fumigatus (ATCC 26430) of individual entries
System: Aspergillus fumigatus ATCC 26430
methodNotes: microbe, parasite or virus in culture
Assay type: cell-based
conditionNotes: ATCC 26430, pH 7.4
Non-standard residues stand in square brackets, D forms with d. Residues, ends and D or L forms follow the SMILES beside them. *: point of attachment. Palmitoyl = CCCCCCCCCCCCCCCC(=O)*

INSERT INTO measurements (compound, datavalue) VALUES
  ('CCCCCCCCCCCCCCCC(=O)N[C@H](CCCCN)C(=O)NCC(=O)NCC(=O)NCC(=O)N[C@H](CCCCN)C(=O)NCC(=O)NCC(=O)NCC(=O)N[C@H](CCCCN)C(=O)NCC(=O)NCC(=O)N[C@H](CCCCN)C(N)=O [lipopeptide 2] (Palmitoyl-[dK]GGG[dK]GGG[dK]GG[dK]-NH2)', '12.5 µM'),
  ('NCCCC[C@@H](N)C(=O)NCC(=O)NCC(=O)NCC(=O)N[C@H](CCCCN)C(=O)NCC(=O)NCC(=O)NCC(=O)N[C@H](CCCCN)C(=O)NCC(=O)NCC(=O)N[C@H](CCCCN)C(N)=O [DK4G8, reference compound] (H-[dK]GGG[dK]GGG[dK]GG[dK]-NH2; N-terminus assumed)', '>100 µM'),
  ('CC(C)[C@H](NC(=O)[C@H](CCCCN)NC(=O)[C@H](NC(=O)[C@H](NC(=O)[C@@H](NC(=O)[C@@H](N)CCCCN)C(C)C)C(C)C)C(C)C)C(=O)N[C@H](C(=O)N[C@@H](C(=O)N[C@@H](CCCCN)C(=O)N[C@@H](C(=O)N[C@H](C(=O)N[C@@H](CCCCN)C(N)=O)C(C)C)C(C)C)C(C)C)C(C)C [DK4V8, reference compound] (H-KV[dV][dV]KVV[dV]K[dV]VK-NH2; N-terminus assumed)', '>100 µM');

# ---- query compound ----
Hi! What's the reported Minimal Inhibitory Concentration, Aspergillus fumigatus (ATCC 26430) for CCCCCCCCCCCCCCCC(=O)N[C@@H](CCCCN)C(=O)N[C@H](C(=O)N[C@@H](C(=O)N[C@@H](C(=O)N[C@@H](CCCCN)C(=O)N[C@H](C(=O)N[C@H](C(=O)N[C@@H](C(=O)N[C@@H](CCCCN)C(=O)N[C@@H](C(=O)N[C@H](C(=O)N[C@@H](CCCCN)C(N)=O)C(C)C)C(C)C)C(C)C)C(C)C)C(C)C)C(C)C)C(C)C)C(C)C [lipopeptide 7] (Palmitoyl-KV[dV][dV]KVV[dV]K[dV]VK-NH2) on Aspergillus fumigatus ATCC 26430?
>100 µM

====

Test system: Pseudomonas aeruginosa ATCC 27853
Type: cell-based
conditionNotes: ATCC 27853, pH 7.4
Non-standard residues stand in square brackets, D forms with d. Residues, ends and D or L forms follow the SMILES beside them. *: point of attachment. Palmitoyl = CCCCCCCCCCCCCCCC(=O)*
The reader will find reported Minimal Inhibitory Concentration, P. aeruginosa ATCC 27853 values listed item by item below.
Kindly provide the numeric value in µM only, without the unit symbol.

INSERT INTO assay_data (compound, measuredtarget, datavalue) VALUES
  ('CCCCCCCCCCCCCCCC(=O)N[C@@H](CCCCN)C(=O)NCC(=O)NCC(=O)N[C@H](CCCCN)C(N)=O [PA-KGGK, Palmitoyl-Lys-Gly-Gly-D-Lys-NH2] (Palmitoyl-KGG[dK]-NH2)', 'Pseudomonas aeruginosa ATCC 27853', 12.5);

Lab note: next compound to report on.
Any idea what its Minimal Inhibitory Concentration, P. aeruginosa ATCC 27853 is? The compound is CCCCCCCCCCCCCCCC(=O)N[C@@H](CCCCN)C(=O)N[C@@H](CCCCN)C(=O)N[C@@H](CCCCN)C(=O)N[C@@H](CCCCN)C(N)=O [PA-KKKK] (Palmitoyl-KKKK-NH2)
3.12

====

Tested on: Cryptococcus neoformans ATCC MYA-422
methodNotes: microbe, parasite or virus in culture
Assay type: cell-based
conditionNotes: ATCC MYA-422, pH 7.4
Non-standard residues stand in square brackets, D forms with d. Residues, ends and D or L forms follow the SMILES beside them. *: point of attachment. Palmitoyl = CCCCCCCCCCCCCCCC(=O)*
Here the recorded Minimal Inhibitory Concentration, Cryptococcus neoformans (ATCC MYA-422) is given for each entry.
Please state the figure in µM; there is no need to write the unit.

INSERT INTO results (compound, datavalue) VALUES
  ('CCCCCCCCCCCCCCCC(=O)N[C@@H](CCCCN)C(=O)N[C@H](C(=O)N[C@@H](C(=O)N[C@@H](C(=O)N[C@@H](CCCCN)C(=O)N[C@H](C(=O)N[C@H](C(=O)N[C@@H](C(=O)N[C@@H](CCCCN)C(=O)N[C@@H](C(=O)N[C@H](C(=O)N[C@@H](CCCCN)C(N)=O)C(C)C)C(C)C)C(C)C)C(C)C)C(C)C)C(C)C)C(C)C)C(C)C [lipopeptide 7] (Palmitoyl-KV[dV][dV]KVV[dV]K[dV]VK-NH2)', 3.125);

Attention now shifts to the item below.
Requested read-out: Minimal Inhibitory Concentration, Cryptococcus neoformans (ATCC MYA-422). Entry: CC(C)[C@H](NC(=O)[C@H](CCCCN)NC(=O)[C@H](NC(=O)[C@H](NC(=O)[C@@H](NC(=O)[C@@H](N)CCCCN)C(C)C)C(C)C)C(C)C)C(=O)N[C@H](C(=O)N[C@@H](C(=O)N[C@@H](CCCCN)C(=O)N[C@@H](C(=O)N[C@H](C(=O)N[C@@H](CCCCN)C(N)=O)C(C)C)C(C)C)C(C)C)C(C)C [DK4V8, reference compound] (H-KV[dV][dV]KVV[dV]K[dV]VK-NH2; N-terminus assumed)
50

====

Collected Minimal Inhibitory Concentration, C. neoformans ATCC 66031 values appear next to each entry.
Test system: Cryptococcus neoformans ATCC 66031
methodNotes: microbe, parasite or virus in culture
Format: cell-based
conditionNotes: ATCC 66031, pH 7.4
From the text: […]
Non-standard residues stand in square brackets, D forms with d. Residues, ends and D or L forms follow the SMILES beside them. *: point of attachment. Palmitoyl = CCCCCCCCCCCCCCCC(=O)*; Myristoyl = CCCCCCCCCCCCCC(=O)*; Undecanoyl = CCCCCCCCCCC(=O)*
Kindly provide the numeric value in µM only, without the unit symbol.

# example entries with known answers
INSERT INTO results (compound, datavalue) VALUES
  ('CCCCCCCCCCCCCC(=O)N[C@H](CCCCN)C(=O)NCC(=O)NCC(=O)NCC(=O)N[C@H](CCCCN)C(=O)NCC(=O)NCC(=O)NCC(=O)N[C@H](CCCCN)C(=O)NCC(=O)NCC(=O)N[C@H](CCCCN)C(N)=O [lipopeptide 1] (Myristoyl-[dK]GGG[dK]GGG[dK]GG[dK]-NH2)', 6.25),
  ('CCCCCCCCCCCCCCCC(=O)N[C@H](CCCCN)C(=O)NCC(=O)NCC(=O)NCC(=O)N[C@H](CCCCN)C(=O)NCC(=O)NCC(=O)NCC(=O)N[C@H](CCCCN)C(=O)NCC(=O)NCC(=O)N[C@H](CCCCN)C(N)=O [lipopeptide 2] (Palmitoyl-[dK]GGG[dK]GGG[dK]GG[dK]-NH2)', 6.25),
  ('CCCCCCCCCCC(=O)N[C@@H](CCCCN)C(=O)N[C@@H](CC(C)C)C(=O)N[C@H](CC(C)C)C(=O)N[C@H](CC(C)C)C(=O)N[C@@H](CCCCN)C(=O)N[C@@H](CC(C)C)C(=O)N[C@@H](CC(C)C)C(=O)N[C@H](CC(C)C)C(=O)N[C@@H](CCCCN)C(=O)N[C@H](CC(C)C)C(=O)N[C@@H](CC(C)C)C(=O)N[C@@H](CCCCN)C(N)=O [lipopeptide 10] (Undecanoyl-KL[dL][dL]KLL[dL]K[dL]LK-NH2)', 1.56),
  ('CCCCCCCCCCCCCCCC(=O)N[C@@H](CCCCN)C(=O)NCC(=O)NCC(=O)NCC(=O)N[C@@H](CCCCN)C(=O)NCC(=O)NCC(=O)NCC(=O)N[C@@H](CCCCN)C(=O)NCC(=O)NCC(=O)N[C@@H](CCCCN)C(N)=O [lipopeptide 4] (Palmitoyl-KGGGKGGGKGGK-NH2)', 1.56);

Which value of Minimal Inhibitory Concentration, C. neoformans ATCC 66031 has been reported for CCCCCCCCCCCCCC(=O)N[C@@H](CCCCN)C(=O)NCC(=O)NCC(=O)NCC(=O)N[C@@H](CCCCN)C(=O)NCC(=O)NCC(=O)NCC(=O)N[C@@H](CCCCN)C(=O)NCC(=O)NCC(=O)N[C@@H](CCCCN)C(N)=O [lipopeptide 3] (Myristoyl-KGGGKGGGKGGK-NH2) in the records?
3.125
